Reported DC50 values are given for each entry in this list.
Molecular target: STAT3 (Homo sapiens, UniProt P40763)
Construct: expressed in transfected cells; host or cells: A549
Sequence (P40763 whole entry): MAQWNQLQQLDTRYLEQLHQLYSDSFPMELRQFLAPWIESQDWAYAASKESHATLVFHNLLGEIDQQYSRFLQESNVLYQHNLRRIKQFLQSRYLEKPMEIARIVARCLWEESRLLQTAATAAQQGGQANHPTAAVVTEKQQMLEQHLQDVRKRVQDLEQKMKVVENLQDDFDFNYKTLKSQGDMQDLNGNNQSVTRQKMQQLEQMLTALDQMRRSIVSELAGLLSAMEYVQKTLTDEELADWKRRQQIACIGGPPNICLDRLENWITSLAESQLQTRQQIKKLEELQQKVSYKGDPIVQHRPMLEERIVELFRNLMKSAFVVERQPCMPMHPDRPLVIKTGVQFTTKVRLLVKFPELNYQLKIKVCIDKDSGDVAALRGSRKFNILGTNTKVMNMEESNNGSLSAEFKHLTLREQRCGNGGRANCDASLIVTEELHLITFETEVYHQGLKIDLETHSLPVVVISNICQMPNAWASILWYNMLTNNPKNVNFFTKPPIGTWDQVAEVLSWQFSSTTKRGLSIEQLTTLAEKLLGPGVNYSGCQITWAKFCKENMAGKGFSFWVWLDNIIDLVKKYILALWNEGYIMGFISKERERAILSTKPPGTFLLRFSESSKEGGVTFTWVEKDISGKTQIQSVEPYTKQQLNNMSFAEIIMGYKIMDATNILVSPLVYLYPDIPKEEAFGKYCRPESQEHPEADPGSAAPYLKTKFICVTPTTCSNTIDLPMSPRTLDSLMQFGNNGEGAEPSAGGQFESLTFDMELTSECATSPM
Assay: STAT3 HiBiT degradation assay (Nano-Glo HiBiT lytic detection) in transfected A549 cells
Type: cell-based
Settings: 24 h compound incubation, read-out: STAT3 HiBIT A549 degradation 24 h: Average external-Abs DC50
Experimental: Example 1. HiBiT Assay Protocol Compound preparation and Cell seeding: The transfected A549 cells were harvested from dish into cell culture medium and cell numbers counted. […] Detection: Plates were removed from incubators and equilibrated at room temperature for 15 minutes. […] 30 μL of Nano-Glo Hibit Lytic Detection reagent was added into each well to be detected. The plates were held at room temperature for 10 min followed by reading on EnSpire. […]

# molecule, dataValue
measured = [
    ("Cn1c(=O)n(C2CCC(=O)NC2=O)c2ccc(CCCCCCC(=O)N3CC[C@H]4CC[C@@H](C(=O)N[C@@H](CCC(N)=O)C(=O)NCc5ccc(S(C)(=O)=O)cc5)N4C(=O)[C@@H](NC(=O)c4cc5cc(C(=O)P(=O)(O)O)ccc5[nH]4)C3)cc21 (some centres unmarked)", "10 to 100 nM"),
]

Fill in the blank: the reported DC50 of Cc1ncsc1-c1ccc([C@H](C)NC(=O)[C@@H]2C[C@@H](O)CN2C(=O)[C@@H](NC(=O)CC2CCC(c3cccc(OC[C@H](CCC(N)=O)NC(=O)[C@@H]4Cc5cccc6c5N4C(=O)[C@@H](NC(=O)c4cc5cc(C(=O)P(=O)(O)O)ccc5[nH]4)CC6)c3Cl)CC2)C(C)(C)C)cc1 (some centres unmarked) [I-55] is ____.
10 to 100 nM

----------
Molecular target: STAT3 (Homo sapiens, UniProt P40763)
Construct: expressed in transfected cells; host or cells: A549
Assay: STAT3 HiBiT degradation assay (Nano-Glo HiBiT lytic detection) in transfected A549 cells
Assay type: cell-based
Details: 24 h compound incubation, read-out: STAT3 HiBIT A549 degradation 24 h: Average external-Abs DC50
Reported DC50 values are given for each entry in this list.

# compound, DC50
records = [
    ("Cc1cc(CCCC(=O)N[C@H](C(=O)N2C[C@H](O)C[C@H]2C(=O)N[C@@H](C)c2ccc(-c3scnc3C)cc2)C(C)(C)C)c(F)c(OC[C@H](CCC(N)=O)NC(=O)[C@@H]2CC[C@@H]3CCCC[C@H](NC(=O)c4cc5cc(C(=O)P(=O)(O)O)ccc5[nH]4)C(=O)N32)c1", "< 10 nM"),
    ("Cc1ncsc1-c1ccc([C@H](C)NC(=O)[C@@H]2C[C@@H](O)CN2C(=O)[C@@H](NC(=O)CCCc2cc(F)cc(OC[C@H](CCC(N)=O)NC(=O)[C@@H]3CC[C@@H]4CCCC[C@H](NC(=O)c5cc6cc(C(=O)P(=O)(O)O)ccc6[nH]5)C(=O)N43)c2Cl)C(C)(C)C)cc1", "< 10 nM"),
]

Fill in the blank: the reported DC50 of Cn1c(=O)n(C2CCC(=O)NC2=O)c2ccc(NCCCCCc3cc4c5c(c3)C[C@@H](C(=O)N[C@@H](CCC(N)=O)C(=O)NCc3ccc(S(C)(=O)=O)cc3)N5C(=O)[C@@H](NC(=O)c3cc5cc(C(=O)P(=O)(O)O)ccc5[nH]3)CC4)cc21 (some centres unmarked) is ____.
10 to 100 nM

Fill in the blank: the reported DC50 of Cc1ncsc1-c1ccc([C@H](C)NC(=O)[C@@H]2C[C@@H](O)CN2C(=O)[C@@H](NC(=O)CCCc2cccc(OC[C@H](CCC(N)=O)NC(=O)[C@@H]3CC[C@@H]4CCCC[C@H](NC(=O)c5cc6cc(C(=O)P(=O)(O)O)ccc6[nH]5)C(=O)N43)c2F)C(C)(C)C)cc1 is ____.
< 10 nM

Fill in the blank: the reported DC50 of CN(C)C(=O)[C@@H]1Cc2cc(CCCCCCc3ccc4c(c3)n(C)c(=O)n4C3CCC(=O)NC3=O)cc3c2N1C(=O)[C@@H](NC(=O)c1cc2cc(C(=O)P(=O)(O)O)ccc2[nH]1)CC3 (some centres unmarked) is ____.
> 1000 nM

Fill in the blank: the reported DC50 of Cc1ncsc1-c1ccc([C@H](C)NC(=O)[C@@H]2C[C@@H](O)CN2C(=O)[C@@H](NC(=O)CC2CCC(c3cccc(OC[C@H](CCC(N)=O)NC(=O)[C@@H]4Cc5cccc6c5N4C(=O)[C@@H](NC(=O)c4cc5cc(C(=O)P(=O)(O)O)ccc5[nH]4)CC6)c3Cl)CC2)C(C)(C)C)cc1 (some centres unmarked) [I-56] is ____.
100 to 1000 nM

Fill in the blank: the reported DC50 of Cc1cc(CCCC(=O)N[C@H](C(=O)N2C[C@H](O)C[C@H]2C(=O)N[C@@H](C)c2ccc(-c3scnc3C)cc2)C(C)(C)C)c(Cl)c(OC[C@H](CCC(N)=O)NC(=O)[C@@H]2CC[C@@H]3CCCC[C@H](NC(=O)c4cc5cc(C(=O)P(=O)(O)O)ccc5[nH]4)C(=O)N32)c1 is ____.
< 10 nM

Fill in the blank: the reported DC50 of Cn1c(=O)n(C2CCC(=O)NC2=O)c2ccc(C[C@H]3CC[C@@H](CC(=O)N4CC[C@H]5CC[C@@H](C(=O)N[C@@H](CCC(N)=O)C(=O)NCc6ccc(S(C)(=O)=O)cc6F)N5C(=O)[C@@H](NC(=O)c5cc6cc(C(=O)P(=O)(O)O)ccc6[nH]5)C4)CC3)cc21 (some centres unmarked) is ____.
10 to 100 nM

----------
Reported DC50 values are given for each entry in this list.
Target: STAT3 (Homo sapiens)
Construct: expressed in transfected cells; host or cells: A549
Assay: STAT3 HiBiT degradation assay (Nano-Glo HiBiT lytic detection) in transfected A549 cells
Format: cell-based
Settings: 24 h compound incubation, read-out: STAT3 HiBIT A549 degradation 24 h: Average external-Abs DC50

Recorded results for 5 compounds are shown here.
# compound, measurementKind, dataValue
measured = [
    ("CC(=O)N1CC[C@H]2CC[C@@H](C(=O)N[C@@H](CCC(N)=O)COc3cccc(CCCOc4cc([C@H](C(=O)N5C[C@H](O)C[C@H]5C(=O)NCc5ccc(-c6scnc6C)cc5)C(C)C)on4)c3Cl)N2C(=O)[C@@H](NC(=O)c2cc3cc(C(=O)P(=O)(O)O)ccc3[nH]2)C1 [I-69]", "DC50", "< 10 nM"),
    ("Cc1ncsc1-c1ccc(CNC(=O)[C@@H]2C[C@@H](O)CN2C(=O)[C@@H](c2cc(OCCCc3cccc(OC[C@H](CCC(N)=O)NC(=O)[C@@H]4Cc5cccc6c5N4C(=O)[C@@H](NC(=O)c4cc5cc(C(=O)P(=O)(O)O)ccc5[nH]4)CC6)c3Cl)no2)C(C)C)cc1 [I-63]", "DC50", "< 10 nM"),
    ("COC(=O)N1CC[C@H]2CC[C@@H](C(=O)N[C@@H](CCC(N)=O)COc3cccc(CCCC(=O)N[C@H](C(=O)N4C[C@H](O)C[C@H]4C(=O)N[C@@H](C)c4ccc(-c5scnc5C)cc4)C(C)(C)C)c3Cl)N2C(=O)[C@@H](NC(=O)c2cc3cc(C(=O)P(=O)(O)O)ccc3[nH]2)C1 [I-87]", "DC50", "> 1000 nM"),
    ("CC(C)c1ccc(CNC(=O)[C@H](CCC(N)=O)NC(=O)[C@@H]2CC[C@@H]3CCN(C(=O)[C@H]4CC[C@@H](CCc5ccc6c(c5)n(C)c(=O)n6C5CCC(=O)NC5=O)CC4)C[C@H](NC(=O)c4cc5cc(C(=O)P(=O)(O)O)ccc5[nH]4)C(=O)N32)cc1 (stereo partly shown) [I-59]", "DC50", "10 to 100 nM"),
    ("CC(C)c1ccc(CNC(=O)[C@H](CCC(N)=O)NC(=O)[C@@H]2CC[C@@H]3CCN(C(=O)[C@H]4CC[C@@H](CCc5ccc6c(c5)n(C)c(=O)n6C5CCC(=O)NC5=O)CC4)C[C@H](NC(=O)c4cc5cc(C(=O)P(=O)(O)O)ccc5[nH]4)C(=O)N32)c(F)c1 (stereo partly shown) [I-34]", "DC50", "10 to 100 nM"),
]

Fill in the blank: the reported DC50 of Cn1c(=O)n(C2CCC(=O)NC2=O)c2ccc(CC[C@H]3CC[C@@H](C(=O)N4CC[C@H]5CC[C@@H](C(=O)N[C@@H](CCC(N)=O)c6ccccn6)N5C(=O)[C@@H](NC(=O)c5cc6cc(C(=O)P(=O)(O)O)ccc6[nH]5)C4)CC3)cc21 (stereo partly shown) [I-39] is ____.
10 to 100 nM

Fill in the blank: the reported DC50 of Cc1ncsc1-c1ccc([C@H](C)NC(=O)[C@@H]2C[C@@H](O)CN2C(=O)[C@@H](NC(=O)CCCCCc2cccc(OC[C@H](CCC(N)=O)NC(=O)[C@@H]3CC[C@@H]4CCCC[C@H](NC(=O)c5cc6cc(C(=O)P(=O)(O)O)ccc6[nH]5)C(=O)N43)c2F)C(C)(C)C)cc1 [I-6] is ____.
10 to 100 nM

Every entry's value here was drawn from patent US20240016942A1.
